So I've got a bunch of molecules here, and I need their normalized growth values.
ASSAY_OVERVIEW: chemical genetic growth profiling, strain panel (AID 1159580);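 note: tested at 20 µM; growth read once vehicle control cultures reached saturation at 30 °C; 1 = growth at the plate median or of vehicle wells; lower values mean less growth of the strain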
TEST_CONTEXT: S. cerevisiae deletion strains, growth OD, locus YER016W, strain bim1, stronger effect = lower value
The campaign covered roughly 5,500 compounds. About 2,000 (36%) were called active. Another 18% or so got no clear call; they are omitted. This is one part of the list.
I'd appreciate a reply containing only the number, no unit.

# lookup: normalized growth of COc1ccc(-c2coc3cc(OC(C)=O)cc(OC(C)=O)c3c2=O)cc1
0.972

# lookup: normalized growth of O=c1c2ccccc2oc2ccccc12
0.95

# lookup: normalized growth of C=CCCCCCCCCCCCC(O)CC(O)CO (centres undefined)
0.997

# lookup: normalized growth of NCCc1ccc(O)cc1
0.985

# lookup: normalized growth of COc1cc2c3cc1Oc1cc(ccc1O)C[C@@H]1c4c(cc(OC)c(O)c4Oc4ccc(cc4)C[C@@H]3N(C)CC2)CC[N+]1(C)C
0.988

# lookup: normalized growth of [N-]=[N+]=CC(=O)OCC(N)C(=O)O (centres undefined)
0.995

# lookup: normalized growth of CCN(CC)CCNc1ccc(CO)c2sc3ccccc3c(=O)c12
0.99

# lookup: normalized growth of O=c1c(-c2ccccc2)coc2cc(O)cc(O)c12
1.01

# lookup: normalized growth of CC(=O)Oc1cc(-c2coc3cc(OC(C)=O)c(OC(C)=O)c(OC(C)=O)c3c2=O)cc(OC(C)=O)c1OC(C)=O
0.972

# lookup: normalized growth of O=C(O)c1cc(=O)c2ccccc2o1
0.984

# lookup: normalized growth of CN(C)CCC=C1c2ccccc2C=Cc2ccccc21
0.998

# lookup: normalized growth of O=C1CCc2cc(OCCCCc3nnnn3C3CCCCC3)ccc2N1
0.993

# lookup: normalized growth of COc1ccc(C(=O)/C=C/c2ccccc2)cc1
0.91

# lookup: normalized growth of O=c1c(-c2cc(O)c(O)c(O)c2)coc2cc(O)c(O)c(O)c12
1

# lookup: normalized growth of CC[C@]12C=CCN3CC[C@@]4(c5ccc(OC)cc5N(C)C4[C@@](O)(C(=O)OC)[C@@H]1OC(C)=O)[C@@H]32 (some centres undefined)
0.993

# lookup: normalized growth of COCCOC(=O)C1=C(C)NC(C)=C(C(=O)OC(C)C)C1c1cccc([N+](=O)[O-])c1 (centres undefined)
0.989

# lookup: normalized growth of O=C(/C=C/c1ccccc1)c1ccc(O)cc1
0.176

# lookup: normalized growth of NC(=O)CC[C@@H](N)C(=O)O
1.02

# lookup: normalized growth of CN(C)CC/C=C1/c2ccccc2COc2ccccc21
1.01

# lookup: normalized growth of Cc1cc2cc3c(C)cc(=O)oc3c(C)c2o1
1

# lookup: normalized growth of N[C@@H]1CONC1=O
0.946

# lookup: normalized growth of COC(=O)C1=C(C)NC(C)=C(C(=O)OC)C1c1ccccc1[N+](=O)[O-]
0.944

# lookup: normalized growth of NCCc1ccc(O)c(O)c1
1

# lookup: normalized growth of O=c1oc2ccccc2c(O)c1Cc1c(O)c2ccccc2oc1=O
1.01
